# experimental-target: G protein-coupled receptor kinase 6 (Homo sapiens);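 note: mean percent inhibition of GRK6, GSK PKIS screen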
# condition-notes: at 0.1 µM

{"compound": "COc1ccc2cc(-c3c(-c4ccncc4)nc(-c4ccc([S+](C)[O-])cc4)n3C)ccc2c1 (stereo unspecified)", "experimental-target": "G protein-coupled receptor kinase 6 (Homo sapiens)", "result-units": "%", "inhibition": -3.74}
{"compound": "Cc1cc(O)cc(C)c1/C=C/c1cncc(-c2nn[nH]n2)c1", "experimental-target": "G protein-coupled receptor kinase 6 (Homo sapiens)", "result-units": "%", "inhibition": 1.06}
{"compound": "CS(=O)(=O)CCNCc1ccc(-c2ccc3ncnc(Nc4ccc(OCc5cccc(F)c5)c(C(F)(F)F)c4)c3c2)o1", "experimental-target": "G protein-coupled receptor kinase 6 (Homo sapiens)", "result-units": "%", "inhibition": 9.26}
{"compound": "O=C1NC(=O)C(c2cccc(Cl)c2)=C1Nc1ccc(O)c(Cl)c1", "experimental-target": "G protein-coupled receptor kinase 6 (Homo sapiens)", "result-units": "%", "inhibition": 2.15}
{"compound": "CCCN1CCC=C(c2ccc(Nc3nc(Nc4ccccc4C(N)=O)c4cc[nH]c4n3)c(C)c2)C1", "experimental-target": "G protein-coupled receptor kinase 6 (Homo sapiens)", "result-units": "%", "inhibition": 6.79}
{"compound": "Cc1cccc(-c2n[nH]cc2-c2ccc3ncccc3n2)n1", "experimental-target": "G protein-coupled receptor kinase 6 (Homo sapiens)", "result-units": "%", "inhibition": 0.46}
{"compound": "Cn1cc(C=C2C(=O)Nc3cccnc32)c2ccccc21", "experimental-target": "G protein-coupled receptor kinase 6 (Homo sapiens)", "result-units": "%", "inhibition": -1.62}
{"compound": "CC1=C(C(=O)Nc2ccc3[nH]ncc3c2)C(c2ccc3ccccc3c2)CC(=O)N1 (stereo unspecified)", "experimental-target": "G protein-coupled receptor kinase 6 (Homo sapiens)", "result-units": "%", "inhibition": 2.91}
{"compound": "CS(=O)(=O)CCNCc1ccc(-c2ccc3ncnc(Nc4ccc(OCc5ccccc5)c(Cl)c4)c3c2)o1", "experimental-target": "G protein-coupled receptor kinase 6 (Homo sapiens)", "result-units": "%", "inhibition": 0.49}
{"compound": "COc1cc(C=NNc2ncnc3c2cnn3-c2ccccc2)ccc1O", "experimental-target": "G protein-coupled receptor kinase 6 (Homo sapiens)", "result-units": "%", "inhibition": 1.52}
{"compound": "CCc1cccc(NC(=O)Nc2ccc(Oc3ccc4nc(NC(=O)OC)[nH]c4c3)cc2)c1", "experimental-target": "G protein-coupled receptor kinase 6 (Homo sapiens)", "result-units": "%", "inhibition": 2.37}
{"compound": "COc1ccc(COc2ccc(Cc3cnc(N)nc3N)cc2OC)cc1", "experimental-target": "G protein-coupled receptor kinase 6 (Homo sapiens)", "result-units": "%", "inhibition": -3}
{"compound": "[O-][S+]1CCN(Cc2ccc(-c3ccc4ncnc(Nc5ccc(OCc6ccccc6)c(F)c5)c4c3)o2)CC1", "experimental-target": "G protein-coupled receptor kinase 6 (Homo sapiens)", "result-units": "%", "inhibition": 3.78}
{"compound": "COc1ccc(-c2nn3ncccc3c2-c2ccnc(Nc3ccc(Cl)c(C(F)(F)F)c3)n2)cc1", "experimental-target": "G protein-coupled receptor kinase 6 (Homo sapiens)", "result-units": "%", "inhibition": 6.26}
{"compound": "COc1ccc(-c2coc3ncnc(N)c23)cc1", "experimental-target": "G protein-coupled receptor kinase 6 (Homo sapiens)", "result-units": "%", "inhibition": 1.34}
{"compound": "Cc1nn(C)c2cc(N(C)c3ccnc(Nc4cccc(S(N)(=O)=O)c4)n3)ccc12", "experimental-target": "G protein-coupled receptor kinase 6 (Homo sapiens)", "result-units": "%", "inhibition": 3.92}
{"compound": "O=C(Nc1n[nH]c2nc(-c3ccco3)c(Br)cc12)C1CC1", "experimental-target": "G protein-coupled receptor kinase 6 (Homo sapiens)", "result-units": "%", "inhibition": -0.71}
{"compound": "CN(C)c1cc2c(Nc3ccc4nc(Cc5ccccc5)[nH]c4c3)ncnc2cn1", "experimental-target": "G protein-coupled receptor kinase 6 (Homo sapiens)", "result-units": "%", "inhibition": 2.98}
{"compound": "CCn1c(-c2nonc2N)nc2cncc(C(=O)N3CCNCC3)c21", "experimental-target": "G protein-coupled receptor kinase 6 (Homo sapiens)", "result-units": "%", "inhibition": 6.32}
{"compound": "COc1ccccc1Nc1ncc(-c2ccccc2)o1", "experimental-target": "G protein-coupled receptor kinase 6 (Homo sapiens)", "result-units": "%", "inhibition": 2.46}
{"compound": "COc1cccc(-n2ncc3c(N/N=C/c4cccc(F)c4)ncnc32)c1", "experimental-target": "G protein-coupled receptor kinase 6 (Homo sapiens)", "result-units": "%", "inhibition": 3.44}

====

# experimental-target: Serine/threonine-protein kinase MARK2 (Homo sapiens) (UniProt Q7KZI7)
# Sequence (Q7KZI7 whole entry): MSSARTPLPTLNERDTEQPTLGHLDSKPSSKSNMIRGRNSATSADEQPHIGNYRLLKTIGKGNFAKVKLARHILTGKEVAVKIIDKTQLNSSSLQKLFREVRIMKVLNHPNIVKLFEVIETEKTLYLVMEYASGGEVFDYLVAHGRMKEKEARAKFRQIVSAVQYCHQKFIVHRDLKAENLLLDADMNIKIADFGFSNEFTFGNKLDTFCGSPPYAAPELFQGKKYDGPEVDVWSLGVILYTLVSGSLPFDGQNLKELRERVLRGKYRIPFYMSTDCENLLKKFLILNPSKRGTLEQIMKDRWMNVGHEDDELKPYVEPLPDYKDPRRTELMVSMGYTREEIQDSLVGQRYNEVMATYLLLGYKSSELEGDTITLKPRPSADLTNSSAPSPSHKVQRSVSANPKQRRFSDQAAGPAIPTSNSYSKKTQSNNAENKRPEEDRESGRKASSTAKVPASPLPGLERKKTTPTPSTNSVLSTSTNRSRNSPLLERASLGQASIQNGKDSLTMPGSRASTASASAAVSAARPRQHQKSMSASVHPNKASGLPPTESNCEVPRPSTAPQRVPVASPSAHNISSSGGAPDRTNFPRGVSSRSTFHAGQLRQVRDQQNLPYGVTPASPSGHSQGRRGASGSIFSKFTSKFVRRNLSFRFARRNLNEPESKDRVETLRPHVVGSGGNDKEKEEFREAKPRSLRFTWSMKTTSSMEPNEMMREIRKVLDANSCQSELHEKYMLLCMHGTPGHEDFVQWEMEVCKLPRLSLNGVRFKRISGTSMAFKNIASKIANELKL
# condition-notes: at 1 µM
# Description: GSK_PKIS: PAR-1Balpha mean inhibition at 1 uM [Nanosyn]

{"compound": "O=C1NC(=O)C(N2CCc3ccccc32)=C1c1ccc(Cl)cc1", "inhibition [%]": 2.02}
{"compound": "CCn1c(-c2nonc2N)nc2cncc(C(=O)N3CC[C@H](N)C3)c21", "inhibition [%]": 7.14}
{"compound": "CNC(=O)c1cncc(/C=C/c2c(Cl)cccc2Cl)c1", "inhibition [%]": 2.64}
{"compound": "CCCN1CCC=C(c2ccc(Nc3nc(Nc4ccccc4C(N)=O)c4cc[nH]c4n3)c(C)c2)C1", "inhibition [%]": 14.6}
{"compound": "CS(=O)(=O)CCN(CC#N)Cc1ccc(-c2ccc3ncnc(Nc4ccc(OCc5cccc(F)c5)c(Cl)c4)c3c2)o1", "inhibition [%]": -1.1}
{"compound": "COc1cc(C)c(NC(=O)CN(C)C)cc1Nc1nc(Nc2cccc(F)c2C(N)=O)c2cc[nH]c2n1", "inhibition [%]": -0.1}
{"compound": "O=C1NC(=O)C(c2ccc(Cl)cc2)=C1Nc1ccc(Cl)c(C(=O)O)c1", "inhibition [%]": 2.17}
{"compound": "Cc1cc(O)cc(C)c1/C=C/c1cncc(-c2nn[nH]n2)c1", "inhibition [%]": 3.29}
{"compound": "CCCN1CCC(Oc2cc(Nc3nc(Nc4cccc(F)c4C(N)=O)c4cc[nH]c4n3)c(OC)cc2Cl)CC1", "inhibition [%]": 1.3}
{"compound": "Cc1nnc(-c2ccc(C)c(-c3ccc(C(=O)Nc4cccc(C#N)c4)cc3)c2)o1", "inhibition [%]": 0.87}
{"compound": "Nc1ncnc2occ(-c3ccc(NC(=O)Nc4cc(C(F)(F)F)cc(C(F)(F)F)c4)cc3)c12", "inhibition [%]": 0.58}
{"compound": "Cc1cccc(-c2n[nH]cc2-c2ccc3ncccc3n2)n1", "inhibition [%]": -0.03}
{"compound": "CS(=O)(=O)CCNCc1ccc(-c2ccc3ncnc(Nc4ccc(OCc5ccccc5)c(Cl)c4)c3c2)o1", "inhibition [%]": 3.76}
{"compound": "Nc1nc(-c2ccc3c(c2)C(=Cc2cc(Br)c(O)c(Br)c2)C(=O)N3)cs1", "inhibition [%]": 0.67}
{"compound": "CCn1c(-c2nonc2N)nc2cncc(C(=O)N3CCNCC3)c21", "inhibition [%]": 2.03}
{"compound": "NC(=O)c1ccc(-c2nc(-c3ccccn3)c(-c3ccc4c(c3)OCO4)[nH]2)cc1", "inhibition [%]": -0.45}
{"compound": "Nc1ncnc2occ(-c3ccc(NC(=O)Nc4cccc(C(F)(F)F)c4)cc3)c12", "inhibition [%]": 3.83}
{"compound": "COc1cc2c(cc1Nc1nc(N3CCc4ccccc43)c3cc[nH]c3n1)N(C(=O)CN(C)C)CC2", "inhibition [%]": 0.39}
{"compound": "CS(=O)(=O)CCNCc1ccc(-c2ccc3ncnc(Nc4ccc(OCc5cccc(F)c5)c(C(F)(F)F)c4)c3c2)o1", "inhibition [%]": -0.27}
{"compound": "COc1cc2ncn(-c3cc(OCc4ccccc4Cl)c(C(N)=O)s3)c2cc1OC", "inhibition [%]": 6.01}
{"compound": "CC1=C(C(=O)Nc2ccc3[nH]ncc3c2)C(c2ccc(F)cc2)NC(=O)N1 (stereo not drawn)", "inhibition [%]": 3.63}
{"compound": "COC(=O)Nc1nc2cc(Oc3ccc(NC(=O)Nc4cccc(C(=O)O)c4)cc3)ccc2[nH]1", "inhibition [%]": 0.87}
{"compound": "COc1ccc2cc(-c3c(-c4ccncc4)nc(-c4ccc([S+](C)[O-])cc4)n3C)ccc2c1 (stereo not drawn)", "inhibition [%]": 2.02}
{"compound": "CCn1c(-c2nonc2N)nc2c(C#CC(C)(C)O)nc(OC[C@@H](N)c3ccccc3)cc21", "inhibition [%]": 13.6}
{"compound": "O=C1NC(=O)C(c2cccc(Cl)c2)=C1Nc1ccc(O)c(Cl)c1", "inhibition [%]": 16.3}
{"compound": "CS(=O)(=O)CCNCc1nc(-c2ccc3ncnc(Nc4ccc(F)c(Cl)c4)c3c2)cs1", "inhibition [%]": 0.61}
{"compound": "Cn1cc(C=C2C(=O)Nc3cccnc32)c2ccccc21", "inhibition [%]": 5.73}
{"compound": "NS(=O)(=O)c1cccc(-c2ccc3c(NC(=O)C4CC4)n[nH]c3c2)c1", "inhibition [%]": 4.42}
{"compound": "COc1ccc(-c2ccncc2)cc1C(N)=O", "inhibition [%]": 0.17}
{"compound": "CS(=O)(=O)Nc1ccc(N/C=C2\\C(=O)Nc3ccccc32)cc1", "inhibition [%]": 15.6}
{"compound": "COc1ccc(COc2ccc(Cc3cnc(N)nc3N)cc2OC)cc1", "inhibition [%]": 3.13}
{"compound": "CC1=C(C(=O)Nc2ccc3[nH]ncc3c2)C(c2ccc3ccccc3c2)CC(=O)N1 (stereo not drawn)", "inhibition [%]": 0.34}
{"compound": "COc1cc2ncn(-c3cc(OCc4ccccc4C(F)(F)F)c(C(N)=O)s3)c2cc1OC", "inhibition [%]": 12.2}
{"compound": "Cc1nn(C)c2cc(N(C)c3ccnc(Nc4cccc(S(N)(=O)=O)c4)n3)ccc12", "inhibition [%]": 1.25}
{"compound": "CCN1CCC(CC(=O)Nc2n[nH]c3nc(-c4cccs4)c(Br)cc23)CC1", "inhibition [%]": 0.15}
{"compound": "O=C1NC(=O)C(c2ccccc2Cl)=C1Nc1cccc(O)c1", "inhibition [%]": 8.31}
{"compound": "CCn1c(-c2nonc2N)nc2c(C#CC(C)(C)O)nc(CN3CCCC3)cc21", "inhibition [%]": 10}
{"compound": "CN(C)c1cc2c(Nc3ccc4nc(Cc5ccccc5)[nH]c4c3)ncnc2cn1", "inhibition [%]": 1.13}
{"compound": "COc1ccccc1Nc1ncc(-c2ccccc2)o1", "inhibition [%]": 3.48}
{"compound": "O=C1Nc2ccc(C(=O)c3ccco3)cc2C1=Cc1cc(Cl)c(O)c(Cl)c1", "inhibition [%]": 8.29}
{"compound": "N#Cc1c(NC(=O)c2cccc3ccccc23)sc2c1CCCC2", "inhibition [%]": 1.22}
{"compound": "COc1ccc(-c2coc3ncnc(N)c23)cc1", "inhibition [%]": 2.28}
{"compound": "c1cnn2ncc(-c3ccnc(Nc4ccc5c(c4)OCCO5)n3)c2c1", "inhibition [%]": 14.3}
